- system-under-test: OsWRKY34 (Oryza sativa, UniProt Q0JBA9 1-250)
- Sequence (Q0JBA9 entry or part of it): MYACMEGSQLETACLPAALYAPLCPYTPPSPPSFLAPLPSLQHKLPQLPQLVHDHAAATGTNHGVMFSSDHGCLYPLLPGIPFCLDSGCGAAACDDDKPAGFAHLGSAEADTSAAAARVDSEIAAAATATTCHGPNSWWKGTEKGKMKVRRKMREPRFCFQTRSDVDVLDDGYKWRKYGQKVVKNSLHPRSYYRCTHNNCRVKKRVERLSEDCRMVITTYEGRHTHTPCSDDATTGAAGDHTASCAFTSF
- method-description: protein-binding microarray (RPBM); PBS, 2% BSA, 51.3 ng/ul salmon testes DNA, 50 uM zinc acetate, 200 nM TF, 25 C, 1 h; high values mean tight binding
- experimental-parameters: protein: recombinant; tags: N-terminal polyhistidine and DsRed monomer fusion (pET32a); label: CyDye5-dUTP incorporated in the synthesized complementary strand; 3' TTTTT single-stranded linker to array surface; dsDNA, one strand shown
Whole data set: some 68,000 sequences, median “fluorescence intensity (a.u.)” near 9,100, cut for the highest 2% near 16,000. This excerpt belongs to a sample that is enriched for the highest values.
quantity-name: binding signal

GTTTCATCTTCTTGTGGGCTTTTCTGGTGAACTCAATTCACGGAGTCACCTAGTGCAG: 8250 fluorescence intensity (a.u.)
GGGTATATACCGTGACCCTGATCGCCACACCGACCGGATACGGAGTCACCTAGTGCAG: 13600 fluorescence intensity (a.u.)
TCGAGGAGTGGATGGACGGATGGGTGGGTCATCACTGGTCCGGAGTCACCTAGTGCAG: 8840 fluorescence intensity (a.u.)
GTTTGACTATTTTATGCCTTGTAGCTTGAGCTACAGTTCACGGAGTCACCTAGTGCAG: 10100 fluorescence intensity (a.u.)
CTTTTATATAGCTTTGTCTAGTCTTGTGAATTCTCAATTGCGGAGTCACCTAGTGCAG: 8530 fluorescence intensity (a.u.)

For OsWRKY34 (Oryza sativa, UniProt Q0JBA9 1-250), give binding signal of the listed sequence: TCCATTGACACCGGCACACGCACACGCACACCCGCACCGCCGGAGTCACCTAGTGCAG
8960 fluorescence intensity (a.u.)

For OsWRKY34 (Oryza sativa, UniProt Q0JBA9 1-250), give binding signal of the listed sequence: ATGTCATGTCATGTCGCATATCTCCCATGTCTTGGCACGACGGAGTCACCTAGTGCAG
9540 fluorescence intensity (a.u.)

For OsWRKY34 (Oryza sativa, UniProt Q0JBA9 1-250), give binding signal of the listed sequence: GCTCGGGCATCCTTTTTAAGGGCTCGGGGCGGCGGAATCACGGAGTCACCTAGTGCAG
8290 fluorescence intensity (a.u.)

For OsWRKY34 (Oryza sativa, UniProt Q0JBA9 1-250), give binding signal of the listed sequence: CACTTCACCTTTTTTGCAAGATGCTACTACTAATTACTAACGGAGTCACCTAGTGCAG
10400 fluorescence intensity (a.u.)

---

The entries below are paired with their reported binding signal.
- system-under-test: OsWRKY34 (Oryza sativa, UniProt Q0JBA9 1-250)
- method-description: protein-binding microarray (RPBM); PBS, 2% BSA, 51.3 ng/ul salmon testes DNA, 50 uM zinc acetate, 200 nM TF, 25 C, 1 h; high values mean tight binding
- experimental-parameters: protein: recombinant; tags: N-terminal polyhistidine and DsRed monomer fusion (pET32a); label: CyDye5-dUTP incorporated in the synthesized complementary strand; 3' TTTTT single-stranded linker to array surface; dsDNA, one strand shown
Over roughly 68,000 sequences, “fluorescence intensity (a.u.)” has its median near 9,100; the highest 2% begin near 16,000. For the sample, the highest values were picked, then their nearest neighbours and some sequences at random.

Here is how some sequences turned out for binding signal.
TCTCTTCGCTCTGCCCACTTGCTAAACCATACCGGCGATACGGAGTCACCTAGTGCAG: 9960 fluorescence intensity (a.u.)
TTCTCTTTTTCTTTTTATTTTTTCGTTCTCGTCGCCGCCGCGGAGTCACCTAGTGCAG: 8330 fluorescence intensity (a.u.)

Could you please provide reported binding signal for ATATTTATGTGCCAAATATTGTCAATTGTTCCTCTTGTTACGGAGTCACCTAGTGCAG ? Thanks!
9080 fluorescence intensity (a.u.)

Could you please provide reported binding signal for CACACCTCGCCGCTCTTCCCGGCCTCCACCCGCCGCCCTTCGGAGTCACCTAGTGCAG ? Thanks!
8510 fluorescence intensity (a.u.)

Could you please provide reported binding signal for CGTGTCGGTGTCTCATCTCTCTCTCTCTTCCCATCCGCCGCGGAGTCACCTAGTGCAG ? Thanks!
8790 fluorescence intensity (a.u.)

Could you please provide reported binding signal for AACCACTCGCTTCCAAACAATCCAAACCTTCCATGCCATTCGGAGTCACCTAGTGCAG ? Thanks!
64700 fluorescence intensity (a.u.)

Could you please provide reported binding signal for ATACCGCCTATTTGCCACTCGTTTTTCTTCTCTTGGGCCGCGGAGTCACCTAGTGCAG ? Thanks!
18700 fluorescence intensity (a.u.)

Could you please provide reported binding signal for GCTTCGGCCCAACAACATTCCACTCGGCCCAACAACCACCCGGAGTCACCTAGTGCAG ? Thanks!
9750 fluorescence intensity (a.u.)

Could you please provide reported binding signal for GACAATTACTTAGTCCTCACCTACCGTCGACCTCACACGTCGGAGTCACCTAGTGCAG ? Thanks!
10200 fluorescence intensity (a.u.)
